- target.system: UniProtKB Q12809
- Sequence (Q12809 whole entry): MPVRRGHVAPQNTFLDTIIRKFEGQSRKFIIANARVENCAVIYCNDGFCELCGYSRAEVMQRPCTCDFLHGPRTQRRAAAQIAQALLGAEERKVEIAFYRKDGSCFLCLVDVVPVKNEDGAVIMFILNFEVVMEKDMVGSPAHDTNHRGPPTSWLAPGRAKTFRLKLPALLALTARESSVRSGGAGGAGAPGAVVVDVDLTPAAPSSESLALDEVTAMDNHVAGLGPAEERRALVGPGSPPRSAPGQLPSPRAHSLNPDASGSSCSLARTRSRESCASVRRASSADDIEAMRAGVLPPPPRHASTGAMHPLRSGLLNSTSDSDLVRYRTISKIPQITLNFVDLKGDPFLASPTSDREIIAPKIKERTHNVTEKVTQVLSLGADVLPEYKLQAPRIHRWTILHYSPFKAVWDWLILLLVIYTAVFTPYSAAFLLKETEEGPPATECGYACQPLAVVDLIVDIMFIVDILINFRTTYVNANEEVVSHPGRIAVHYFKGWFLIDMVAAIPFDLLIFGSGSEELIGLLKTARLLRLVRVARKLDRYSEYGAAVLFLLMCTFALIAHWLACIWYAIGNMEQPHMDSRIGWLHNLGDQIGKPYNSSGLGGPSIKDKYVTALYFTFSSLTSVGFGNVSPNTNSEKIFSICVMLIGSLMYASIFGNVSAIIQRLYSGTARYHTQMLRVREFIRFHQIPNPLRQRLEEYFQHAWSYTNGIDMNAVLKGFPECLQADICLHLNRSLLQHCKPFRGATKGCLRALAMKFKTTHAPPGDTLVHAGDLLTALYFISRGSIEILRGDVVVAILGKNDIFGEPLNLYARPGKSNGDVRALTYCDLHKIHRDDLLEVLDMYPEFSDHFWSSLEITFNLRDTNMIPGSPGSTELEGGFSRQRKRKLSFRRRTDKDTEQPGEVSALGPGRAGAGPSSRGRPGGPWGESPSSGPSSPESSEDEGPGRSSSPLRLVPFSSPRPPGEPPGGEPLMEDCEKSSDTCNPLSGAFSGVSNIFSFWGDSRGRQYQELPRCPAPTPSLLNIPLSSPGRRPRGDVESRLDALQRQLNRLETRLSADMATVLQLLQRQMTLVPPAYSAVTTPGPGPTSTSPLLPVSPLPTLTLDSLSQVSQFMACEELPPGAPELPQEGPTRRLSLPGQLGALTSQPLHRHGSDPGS
- test.method.notes: Assay 5 - hERG assay (SyncroPatch 384PE patch clamp, CHO cells)
- measurement.setup: geometric mean; CHO cells over-expressing hERG; read-out: Assay 5 (hERG Hu CHO IF EPh CR-Syncro) GMean IC50
Catalogue of IC50 readings, one per entry.
outcome.measure: IC50 (µM)

N#Cc1ccc(=O)n(-c2ccc(N[C@H]3CC[C@H](Nc4cnc(Cl)cn4)C3)nc2)c1	19.9
Cc1ccc(=O)n(-c2ccc(N[C@H]3CC[C@H](Nc4cnc(Cl)cn4)C3)nc2)c1	32.2
O=c1ccc2ccccc2n1-c1ccc(N[C@H]2CC[C@H](Nc3cnc(Cl)cn3)C2)nc1	4.7
Cc1cnc(N[C@H]2CC[C@H](Nc3ccc(-n4c(=O)n(C)c5cc(C#N)cnc54)cn3)C2)cn1	22.5

---

- target.system: GSK3β (Glycogen synthase kinase-3 beta) (Homo sapiens)
- Sequence (P49841 whole entry): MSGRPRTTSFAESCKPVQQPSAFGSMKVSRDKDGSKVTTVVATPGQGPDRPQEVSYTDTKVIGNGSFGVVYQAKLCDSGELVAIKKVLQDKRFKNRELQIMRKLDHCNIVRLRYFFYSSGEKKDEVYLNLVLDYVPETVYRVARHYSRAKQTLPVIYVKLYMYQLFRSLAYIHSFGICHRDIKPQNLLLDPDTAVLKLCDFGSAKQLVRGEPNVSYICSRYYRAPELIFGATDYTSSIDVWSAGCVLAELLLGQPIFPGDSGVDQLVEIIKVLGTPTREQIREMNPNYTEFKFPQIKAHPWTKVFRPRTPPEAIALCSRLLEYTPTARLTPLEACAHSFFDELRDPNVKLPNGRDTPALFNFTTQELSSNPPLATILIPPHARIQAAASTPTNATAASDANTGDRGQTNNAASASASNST
- test.method.notes: Assay 6 - GSK3β assay (ThermoFisher Z-Lyte)
- Type: biochemical
- measurement.setup: geometric mean; ATP Conc: 10 μM; read-out: Assay 6 (GSK3β FRET-Z-Lyte CR) GMean IC50 (μM) ATP Conc: 10
outcome.measure: IC50

Cc1ncc(N[C@H]2CC[C@H](Nc3ccc(-n4cccc(C)c4=O)cn3)C2)nc1C [Example 18]	> 10 µM
Cc1cnc(N[C@H]2CC[C@H](Nc3ccc(-n4cc(-c5nnn[nH]5)ccc4=O)cn3)C2)cn1 [Example 177]	> 10 µM
O=c1ccc(-c2nnn[nH]2)cn1-c1ccc(N[C@H]2CC[C@H](Nc3cnc(Cl)cn3)C2)nc1 [Example 179]	6.9 µM
N#Cc1cccn(-c2ccc(N[C@H]3CC[C@H](Nc4cnc(C5CC5)cn4)C3)nc2)c1=O [Example 104]	> 10 µM
Cc1cnc(N[C@H]2CC[C@H](Nc3ccc(N4C(=O)CN(C)C4=O)cn3)C2)cn1 [Example 41]	> 10 µM
Cc1ncc(N[C@H]2CC[C@H](Nc3ccc(-n4cc(C(=O)O)ccc4=O)cn3)C2)nc1C [Example 14]	> 10 µM
Cc1cnc(N[C@H]2CC[C@H](Nc3ccc(-n4nccc(Cl)c4=O)cn3)C2)cn1 [Example 232]	> 10 µM
COc1cccn(-c2ccc(N[C@H]3CC[C@H](Nc4cnc(C)cn4)C3)nc2)c1=O (relative stereo) [Example 172]	3.7 µM

---

- target.system: UniProt:Q12809
- test.method.notes: Assay 5 - hERG assay (SyncroPatch 384PE patch clamp, CHO cells)
- measurement.setup: geometric mean; CHO cells over-expressing hERG; read-out: Assay 5 (hERG Hu CHO IF EPh CR-Syncro) GMean IC50
Catalogue of IC50 readings, one per entry.
outcome.measure: IC50 (µM)

Cc1cnc(N[C@H]2CC[C@H](Nc3ccc(-n4c(=O)ccc5ccccc54)cn3)C2)cn1	25.1
Cc1ncc(N[C@H]2CC[C@H](Nc3ccc(-n4cc(C#N)ccc4=O)cn3)C2)nc1C	18.4
O=c1ccccn1-c1ccc(N[C@H]2CC[C@H](Nc3cnc4ccc(Cl)cc4n3)C2)nc1	4.6
N#Cc1cccn(-c2ccc(N[C@H]3CC[C@H](Nc4cnc(C5CC5)cn4)C3)nc2)c1=O	24.2

---

Quick record of Kd values for human PCSK9 (Homo sapiens).
outcome.measure: Kd (nM)

O=C(O)c1ccc(=O)n(-c2ccc(N[C@H]3CC[C@H](Nc4cnc(Cl)cn4)C3)nc2)c1 [Example 33]	13
Cc1cnc(N[C@H]2CC[C@H](Nc3ccc(-n4ccccc4=O)cn3)C2)cn1 [Example 4]	81
Cc1cnc(N[C@H]2CC[C@H](Nc3ccc(N4CC(=O)N(C)C4=O)cn3)C2)cn1 [Example 39]	33
Cc1cncc(N[C@H]2CC[C@H](Nc3ccc(-n4ccccc4=O)cn3)C2)n1 [Example 141]	405
N#Cc1cncc(N[C@H]2CC[C@H](Nc3ccc(-n4ccccc4=O)cn3)C2)n1 [Example 142]	2420
Cc1cnc(N[C@H]2CC[C@H](Nc3ccc(-n4nccc(C#N)c4=O)cn3)C2)cn1 [Example 278]	12
CN1CC(=O)N(c2ccc(N[C@H]3CC[C@H](Nc4cnc(Cl)cn4)C3)nc2)C1=O [Example 100]	45
Cc1cnc(N[C@H]2CC[C@H](Nc3ccc(-n4c(=O)ccc5cccnc54)cn3)C2)cn1 [Example 37]	5.5
O=c1ccccn1-c1ccc(N[C@H]2CC[C@H](Nc3cnc(OC(F)F)cn3)C2)nc1 [Example 86]	64
CN1CCN(c2ccc(=O)n(-c3ccc(N[C@H]4CC[C@H](Nc5cnc(OC(F)F)cn5)C4)nc3)c2)CC1 [Example 81]	66
Cc1cnc(N[C@H]2CC[C@H](Nc3ccc(-n4cccc(C)c4=O)cn3)C2)cn1 [Example 44]	4.5
O=c1ccccn1-c1ccc(N[C@H]2CC[C@H](Nc3cnc(OC(F)(F)F)cn3)C2)nc1 [Example 111]	128
Cc1cnc(N[C@H]2CC[C@H](Nc3ccc(-n4c(=O)[nH]c5ccccc54)cn3)C2)cn1 [Example 46]	4.7
Cn1c(=O)n(-c2ccc(N[C@H]3CC[C@H](Nc4cnc(OC(F)F)cn4)C3)nc2)c2ccccc21 [Example 82]	4.1
Cc1cnc(N[C@H]2CC[C@H](Nc3ccc(-n4c(=O)n(C)c5cccnc54)cn3)C2)cn1 [Example 42]	5
Cc1ncc(N[C@H]2CC[C@H](Nc3ccc(-n4ccccc4=O)cn3)C2)nc1C [Example 2]	64

---

- target.system: PCSK9 (Homo sapiens, UniProt Q8NBP7, G670E/V474I)
- Sequence (Q8NBP7 with tags, fused parts or gaps V474I/G670E): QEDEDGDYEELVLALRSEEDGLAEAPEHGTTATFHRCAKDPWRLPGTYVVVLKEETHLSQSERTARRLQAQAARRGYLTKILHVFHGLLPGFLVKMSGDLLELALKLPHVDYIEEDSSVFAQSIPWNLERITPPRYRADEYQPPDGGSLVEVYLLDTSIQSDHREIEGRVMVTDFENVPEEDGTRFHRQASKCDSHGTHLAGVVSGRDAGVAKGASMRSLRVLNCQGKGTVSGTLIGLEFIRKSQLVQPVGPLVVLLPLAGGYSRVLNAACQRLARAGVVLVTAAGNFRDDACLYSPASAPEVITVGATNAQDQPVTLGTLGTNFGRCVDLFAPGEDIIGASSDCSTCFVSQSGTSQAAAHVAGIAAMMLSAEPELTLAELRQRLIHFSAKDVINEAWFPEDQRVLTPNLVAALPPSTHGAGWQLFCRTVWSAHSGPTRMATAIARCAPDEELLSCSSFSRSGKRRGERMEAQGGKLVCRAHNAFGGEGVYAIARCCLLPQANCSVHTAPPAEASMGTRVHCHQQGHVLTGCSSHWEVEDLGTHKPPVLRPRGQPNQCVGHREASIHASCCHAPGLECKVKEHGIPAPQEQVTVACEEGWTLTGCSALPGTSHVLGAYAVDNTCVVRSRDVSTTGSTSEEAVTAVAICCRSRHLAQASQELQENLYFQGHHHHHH
- test.method.notes: biochemical
Catalogue of IC50 readings, one per entry.
outcome.measure: IC50 (nM)

Cc1ncc(N[C@H]2CC[C@H](Nc3ccc(N4C(=O)CN(C)C4=O)cn3)C2)nc1C	107
COc1cccn(-c2ccc(N[C@H]3CC[C@H](Nc4cnc(C)cn4)C3)nc2)c1=O (relative stereo) [Example 172]	5.3
Cc1cnc(N[C@H]2CC[C@H](Nc3ccc(-n4nc(C)ccc4=O)cn3)C2)cn1	46

---

- target.system: PCSK9 (Homo sapiens, UniProt Q8NBP7, G670E/V474I)
- test.method.notes: biochemical
Catalogue of IC50 readings, one per entry.
outcome.measure: IC50 (nM)

COC(=O)CSc1cnc(N[C@H]2CC[C@H](Nc3ccc(-n4ccccc4=O)cn3)C2)cn1	451
N#Cc1cccn(-c2ccc(N[C@H]3CC[C@H](Nc4cnc(OC(F)F)cn4)C3)nc2)c1=O	15
COc1ccc(=O)n(-c2ccc(N[C@H]3CC[C@H](Nc4cnc(C)cn4)C3)nc2)c1	67
N#Cc1cnc(N[C@H]2CC[C@H](Nc3ccc(-n4ccccc4=O)cn3)C2)cn1	499
CNC(=O)c1cnc(N[C@H]2CC[C@H](Nc3ccc(-n4cccc(OC)c4=O)cn3)C2)cn1 (stereo in doubt)	8700
O=c1c(Cl)cccn1-c1ccc(N[C@H]2CC[C@H](Nc3cnc(OC(F)F)cn3)C2)nc1	4.3
CSc1cnc(N[C@H]2CC[C@H](Nc3ccc(-n4ccccc4=O)cn3)C2)cn1	42
N#Cc1ccc(=O)n(-c2ccc(N[C@H]3CC[C@H](Nc4cnc(Cl)cn4)C3)nc2)c1	40
COc1ccc(=O)n(-c2ccc(N[C@H]3CC[C@H](Nc4cnc(C5CC5)cn4)C3)nc2)c1	105
Cc1cnc(N[C@H]2CC[C@H](Nc3ccc(N4C(=O)CCc5ccccc54)cn3)C2)cn1	8.1
N#Cc1cncc(N[C@H]2CC[C@H](Nc3ccc(-n4ccccc4=O)cn3)C2)n1	1610
O=c1ccc(Cl)cn1-c1ccc(N[C@H]2CC[C@H](Nc3cnc(C4CC4)cn3)C2)nc1	41
Nc1ccc2ncc(N[C@H]3CC[C@H](Nc4ccc(-n5ccccc5=O)cn4)C3)nc2n1	1480
O=c1ccc2ccccc2n1-c1ccc(N[C@H]2CC[C@H](Nc3cnc(OC(F)F)cn3)C2)nc1	4.5
Cc1cnc(N[C@H]2CC[C@H](Nc3ccc(-n4cc(C#N)ccc4=O)cn3)C2)cn1	58
O=c1ccc(Cl)cn1-c1ccc(N[C@H]2CC[C@H](Nc3cnc(OC(F)F)cn3)C2)nc1	44

---

- target.system: PCSK9 (Homo sapiens, UniProt Q8NBP7, G670E/V474I)
- test.method.notes: biochemical
Catalogue of IC50 readings, one per entry.
outcome.measure: IC50

Cc1cccn(-c2ccc(N[C@H]3CC[C@H](Nc4cnc(Cl)cn4)C3)nc2)c1=O [Example 24]	4.3 nM
Cc1ncc(N[C@H]2CC[C@H](Nc3ccc(-n4cc(-c5nnn[nH]5)ccc4=O)cn3)C2)nc1C [Example 176]	12 nM
Cc1cnc(N[C@H]2CC[C@H](Nc3ccc(N4C(=O)CCc5cccnc54)cn3)C2)cn1 [Example 276]	80 nM
Cc1cnc(N[C@H]2CC[C@H](Nc3ccc(-n4c(=O)n(C)c5cc(C#N)ccc54)cn3)C2)cn1 [Example 216]	2.8 nM
Cc1cnc(N[C@H]2CC[C@H](Nc3ccc(-n4cc(-c5c[nH]nn5)ccc4=O)cn3)C2)cn1 [Example 209]	6.3 nM
COc1cnc(N[C@H]2CC[C@H](Nc3ccc(-n4ccccc4=O)cn3)C2)cn1 [Example 140]	309 nM
Cc1cnc(N[C@H]2CC[C@H](Nc3ccc(-n4c(=O)n(C)c5cccnc54)cn3)C2)cn1 [Example 42]	5.8 nM
O=c1cccnn1-c1ccc(N[C@H]2CC[C@H](Nc3cnc(Cl)cn3)C2)nc1 [Example 25]	28 nM
